The values you see were collected from ChEMBL document CHEMBL4507302.

target: 5-hydroxytryptamine receptor 1D (Homo sapiens); assay: GPCRScan assay: inhibition of 5-HT1D; set-up: radioligand conc. used [nm] 1.0 – 2.0, parental cells HEKT; details: read-out: Ki
Sequence (P28221 whole entry): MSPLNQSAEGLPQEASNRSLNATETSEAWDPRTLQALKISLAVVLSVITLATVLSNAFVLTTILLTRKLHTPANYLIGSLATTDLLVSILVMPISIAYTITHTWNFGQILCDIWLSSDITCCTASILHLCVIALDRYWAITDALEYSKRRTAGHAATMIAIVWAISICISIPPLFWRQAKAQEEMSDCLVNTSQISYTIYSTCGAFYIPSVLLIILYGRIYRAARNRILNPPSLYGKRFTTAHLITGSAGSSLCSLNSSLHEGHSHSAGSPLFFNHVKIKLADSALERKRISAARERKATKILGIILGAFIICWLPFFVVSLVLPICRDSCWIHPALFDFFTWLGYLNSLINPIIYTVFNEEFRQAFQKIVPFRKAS
reported.metric: pKi
Hey, just a heads up that pKi is the negative log base 10 of the concentration in molar.

Consider the compound Cn1nc(C(F)(F)F)cc1-c1cnc(N2CCc3cc(S(=O)(=O)Nc4c(F)cc(Cl)cc4F)cc(N4CCCC4=O)c32)nc1 [TP-020] tested on 5-hydroxytryptamine receptor 1D (Homo sapiens); state its pKi.
5.33

* * *

molecular target: Sigma intracellular receptor 2 (Homo sapiens, UniProt Q5BJF2); experiment: GPCRScan assay: inhibition of Sigma 2
Sequence (Q5BJF2 whole entry): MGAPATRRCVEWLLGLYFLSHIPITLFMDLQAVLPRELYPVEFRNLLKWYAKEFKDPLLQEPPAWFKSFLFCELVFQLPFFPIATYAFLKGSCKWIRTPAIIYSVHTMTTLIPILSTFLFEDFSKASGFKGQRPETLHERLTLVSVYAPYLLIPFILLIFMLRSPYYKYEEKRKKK
reported.metric: pKi
// scale note: pKi = -log10(conc_M); give the bare number

Determine its reported pKi: Cn1nc(C(F)(F)F)cc1-c1cnc(N2CCc3cc(S(=O)(=O)Nc4c(F)cc(Cl)cc4F)cc(N4CCCC4=O)c32)nc1 [TP-020]
5.00
